tested on: Ctenocephalides felis; assay: Ctenocephalides felis oral test; assay type: in vivo; settings: 48 h, application rate 100 ppm in citrated cattle blood, kill after 2 days, read-out: efficacy
quantity measured: pest or weed control at 100 ppm (%)

In [3]: df
Out[3]:
                                    compound  quantity_unit  numeric_readout
 0  CCS(=O)(=O)c1c(-c2nc3cc(C(F)(F)F)ncc3n2C)nc(-c2cccnc2F)n1C [Example I-020]              %              100
 1  CCS(=O)(=O)c1c(-c2nc3cc(C(F)(F)F)ncc3n2C)nc(-c2cc(Cl)cs2)n1C [Example I-033]              %              100
 2  CCS(=O)(=O)c1c(-c2nc3cc(C(F)(F)F)ncc3n2C)nc(C(=O)NC)n1C [Example I-039]              %              100
 3  CCS(=O)(=O)c1c(-c2nc3cc(C(F)(F)F)ncc3n2C)nc(-c2cnn(C3CC3)c2)n1C [Example I-055]              %              100
 4  CCS(=O)(=O)c1c(-c2nc3cc(C(F)(F)F)ncc3n2C)nc(-c2ccc(Cl)cn2)n1C [Example I-015]              %              100
 5  CCS(=O)(=O)c1c(-c2nc3cc(C(F)(F)F)ncc3n2C)nc(C(N)=O)n1C [Example I-038]              %              100
 6  CCn1c(Cl)nc(-c2nc3cc(C(F)(F)F)ncc3n2C)c1S(=O)(=O)CC [Example I-011]              %              100
 7  CCS(=O)(=O)c1c(-c2nc3cc(C(F)(F)F)ncc3n2C)nc(/C=C/C2CC2)n1C [Example I-007]              %               95
 8  CCS(=O)(=O)c1c(-c2nc3cc(C(F)(F)F)ncc3n2C)ncn1C [Example I-029]              %               95
 9  CCS(=O)(=O)c1c(-c2nc3cc(C(F)(F)F)ncc3n2C)nc(-c2ccccc2)n1C [Example I-003]              %              100
10  CCS(=O)(=O)c1c(-c2nc3cc(C(F)(F)F)ncc3n2C)nc(-c2ccc(F)nc2)n1C [Example I-019]              %               95
11  CCn1c(-c2ccccc2)nc(-c2nc3cc(C(F)(F)F)ncc3n2C)c1S(=O)(=O)CC [Example I-009]              %               95
12  CCS(=O)(=O)c1c(-c2nc3cc(C(F)(F)F)ncc3n2C)nc(-c2ccncc2F)n1C [Example I-022]              %               95

----------
Listed compounds paired with reported pest or weed control at 100 g/ha
system: Spodoptera frugiperda; assay: Spodoptera frugiperda spray test; assay type: in vivo; conditions: foliar, 168 h, application rate 100 g/ha, maize leaf discs, caterpillars, after 7 days, read-out: efficacy
quantity measured: pest or weed control at 100 g/ha (%)

>>> print(df.to_string())
                            substance_smiles                 quantity_measured  numeric_readout
 0  CCS(=O)(=O)c1c(-c2nc3cc(C(F)(F)F)ncc3n2C)nc(-c2cncc(F)c2)n1C  pest or weed control at 100 g/ha               83
 1  CCS(=O)(=O)c1c(-c2nc3cc(C(F)(F)F)ncc3n2C)nc(/C=C/C2CC2)n1C  pest or weed control at 100 g/ha              100
 2  CCS(=O)(=O)c1c(-c2nc3cc(C(F)(F)F)ncc3n2C)nc(Cl)n1C(C)C  pest or weed control at 100 g/ha              100
 3  CCS(=O)(=O)c1c(-c2nc3cc(C(F)(F)F)ncc3n2C)nc(-c2cccnc2F)n1C  pest or weed control at 100 g/ha               83
 4  CCS(=O)(=O)c1c(-c2nc3cc(C(F)(F)F)nnc3n2C)nc(-c2ccc(Cl)cc2)n1C  pest or weed control at 100 g/ha              100
 5  CCS(=O)(=O)c1c(-c2nc3cc(C(F)(F)F)ncc3n2C)nc(-c2cccc(C3(C#N)CC3)c2)n1C  pest or weed control at 100 g/ha              100
 6  CCS(=O)(=O)c1c(-c2nc3cc(C(F)(F)F)ncc3n2C)nc(-c2ccc(Cl)cn2)n1C  pest or weed control at 100 g/ha              100
 7  CCS(=O)(=O)c1c(-n2cc3ncc(C(F)(F)F)cc3n2)nc(-c2ccccc2)n1C  pest or weed control at 100 g/ha               83
 8  CCS(=O)(=O)c1c(-c2nc3cc(C(F)(F)F)ncc3n2C)nc(-c2cccc(Cl)n2)n1C  pest or weed control at 100 g/ha              100
 9  CCS(=O)(=O)c1c(-n2cc3cnc(C(F)(F)F)cc3n2)nc(-c2ccc(C(F)(F)F)cc2)n1C  pest or weed control at 100 g/ha              100
10  CCS(=O)(=O)c1c(-c2nc3cc(C(F)(F)F)ncc3n2C)nc(-c2ccc(C#N)c(Cl)c2)n1C  pest or weed control at 100 g/ha               83
11  CCS(=O)(=O)c1c(-c2nc3cc(C(F)(F)F)ncc3n2C)nc(-c2ccc(F)nc2)n1C  pest or weed control at 100 g/ha              100
12  CCS(=O)(=O)c1c(-c2nc3cc(C(F)(F)F)ncc3n2C)nc(-c2ccc(C(F)(F)F)cc2C)n1C  pest or weed control at 100 g/ha              100
13  CCS(=O)(=O)c1c(-n2cc3cnc(C(F)(F)F)cc3n2)nc(-c2ccc(Cl)cc2)n1C  pest or weed control at 100 g/ha              100
14  CCS(=O)(=O)c1c(-c2nc3cc(C(F)(F)F)ncc3n2C)nc(-c2ccc(C3(C#N)CC3)c(F)c2)n1C  pest or weed control at 100 g/ha               83
15  CCS(=O)(=O)c1c(-n2cc3ccc(C(F)(F)F)cc3n2)nc(-c2ccc(Cl)cc2)n1C  pest or weed control at 100 g/ha              100
16  CCn1c(Cl)nc(-c2nc3cc(C(F)(F)F)ncc3n2C)c1S(=O)(=O)CC  pest or weed control at 100 g/ha              100
17  CCS(=O)(=O)c1c(-c2nc3cc(C(F)(F)F)ncc3n2C)nc(-c2ccc(Cl)s2)n1C  pest or weed control at 100 g/ha               67
18  CCS(=O)(=O)c1c(-n2cc3ncc(C(F)(F)F)cc3n2)nc(-c2ccc(Cl)cc2)n1C  pest or weed control at 100 g/ha              100
19  CCS(=O)(=O)c1c(-n2cc3ncc(C(F)(F)F)cc3n2)nc(-c2ccc(C(F)(F)F)cc2)n1C  pest or weed control at 100 g/ha              100
20  CCS(=O)(=O)c1c(-c2nc3cc(C(F)(F)F)ncc3n2C)nc(-c2ccc(C3(C#N)CC3)cc2)n1C  pest or weed control at 100 g/ha              100
21  CCS(=O)(=O)c1c(-c2nc3cc(C(F)(F)F)ncc3n2C)nc(-c2ccc(Cl)cc2)n1C  pest or weed control at 100 g/ha              100
22  CCS(=O)(=O)c1c(-c2nc3cc(C(F)(F)F)ncc3n2C)nc(-c2cc(Cl)cs2)n1C  pest or weed control at 100 g/ha              100
23  CCS(=O)(=O)c1c(-c2nc3cc(C(F)(F)F)ncc3n2C)nc(-n2cc(Cl)cn2)n1C  pest or weed control at 100 g/ha              100
24  CCS(=O)(=O)c1c(-n2cc3cnc(C(F)(F)F)cc3n2)nc(-c2ccccc2)n1C  pest or weed control at 100 g/ha              100
25  CCS(=O)(=O)c1c(-c2nc3cc(C(F)(F)F)ncc3n2C)nc(-c2ccc(C3(C#N)CC3)cc2C)n1C  pest or weed control at 100 g/ha              100
26  CCS(=O)(=O)c1c(-c2nc3cc(C(F)(F)F)ncc3n2C)nc(C#CC2CC2)n1C  pest or weed control at 100 g/ha              100
27  CCS(=O)(=O)c1c(-c2nc3cc(C(F)(F)F)ncc3n2C)nc(-c2ccn(C)n2)n1C  pest or weed control at 100 g/ha               83
28  CCS(=O)(=O)c1c(-c2nc3cc(C(F)(F)F)ncc3n2C)nc(-c2cc(Cl)c(C(F)(F)F)cc2C)n1C  pest or weed control at 100 g/ha              100

All figures here come from patent US11083199B2.
